STUDY TARGET: T1, human soluble urokinase plasminogen activator receptor (suPAR) (human, UniProt Q03405 23-303, limits assumed)
T1 construct: Column head says only 'human'; also called human suPAR; hsuPAR
T1 sequence (Q03405 23-303 limits assumed): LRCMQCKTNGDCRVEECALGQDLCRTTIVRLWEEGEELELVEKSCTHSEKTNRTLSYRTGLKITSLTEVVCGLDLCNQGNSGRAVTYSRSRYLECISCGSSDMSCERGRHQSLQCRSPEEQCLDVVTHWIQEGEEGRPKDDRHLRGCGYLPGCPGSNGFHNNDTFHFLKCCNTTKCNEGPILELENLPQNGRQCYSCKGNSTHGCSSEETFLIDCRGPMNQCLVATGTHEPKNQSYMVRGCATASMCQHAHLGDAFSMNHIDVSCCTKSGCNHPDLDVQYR
ASSAY NAME: BLI (Octet) off-rate screen of scFv clones
Listed binders paired with reported koff
Number only, in s⁻¹; omit the unit.

Study these solved cases before continuing.
1. suPAR_DB02_H02 (scFv, V domains shown, scFv clone from phage display) VH: QVQLVQSGAEVKKPGASVKVSCKASGYTFTGYYLHWVRQAPGQGLEWMGWIDPENGSTIYDQKFQGRVTMTRDTSTSTVYMELSSLRSEDTAVYYCARGYDVDWFVYWGQGTLVTVSS VL: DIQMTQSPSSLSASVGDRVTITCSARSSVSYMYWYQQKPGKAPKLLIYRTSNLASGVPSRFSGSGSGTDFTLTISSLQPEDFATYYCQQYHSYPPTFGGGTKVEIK = 0.00579
2. suPAR_DB02_C10 (scFv, V domains shown, scFv clone from phage display) VH: QVQLVQSGAEVKKPGASVKVSCKASGYTFTDYYVHWVRQAPGQGLEWMGWIDHEGGSTIYDQKFQGRVTMTRDTSTSTVYMELSSLRSEDTAVYYCARGYDVDWFVYWGQGTLVTVSS VL: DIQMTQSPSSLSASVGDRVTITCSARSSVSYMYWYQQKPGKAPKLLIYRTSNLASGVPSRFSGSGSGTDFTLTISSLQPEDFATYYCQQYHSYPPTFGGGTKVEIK = 0.00257
3. suPAR_DB02_F05 (scFv, V domains shown, scFv clone from phage display) VH: QVQLVQSGAEVKKPGASVKVSCKASGYTFTGNYMQWVRQAPGQGLEWMGWIDHENGNTIYDQKFQGRVTMTRDTSTSTVYMELSSLRSEDTAVYYCARGYDVDWFVYWGQGTLVTVSS VL: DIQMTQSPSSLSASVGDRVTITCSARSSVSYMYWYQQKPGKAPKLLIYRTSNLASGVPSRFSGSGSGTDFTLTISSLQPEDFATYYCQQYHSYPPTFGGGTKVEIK = 0.00613
4. suPAR_DB02_G08 (scFv, V domains shown, scFv clone from phage display) VH: QVQLVQSGAEVKKPGASVKVSCKASGDTFTSYYMHWVRQAPGQGLEWMGWIDHEGGNTSYEQKFQGRVTMTRDTSTSTVYMELSSLRSEDTAVYYCARGYDVDWFVYWGQGTLVTVSS VL: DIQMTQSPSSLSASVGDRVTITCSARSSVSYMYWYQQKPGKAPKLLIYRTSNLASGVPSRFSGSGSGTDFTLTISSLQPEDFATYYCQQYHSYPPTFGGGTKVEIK = 0.00395

Please find the next binder below.
Reported koff ( suPAR_DB02_C11 (scFv, V domains shown, scFv clone from phage display) VH: QVQLVQSGAEVKKPGASVKVSCKASGYNFKDYYIHWVRQAPGQGLEWMGWIDHENGSTIYAQKFQGRVTMTRDTSTSTVYMELSSLRSEDTAVYYCARGYDVDWFVYWGQGTLVTVSS VL: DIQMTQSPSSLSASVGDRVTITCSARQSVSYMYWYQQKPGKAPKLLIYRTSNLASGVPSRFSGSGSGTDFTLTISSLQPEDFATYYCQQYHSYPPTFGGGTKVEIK ) = 0.0049
